Tested on: CD4+ T cells
assay_info: Exogenous autologous healthy donor restimulation assay, TNFα and IFNγ production by CD4+ T cells
Format: cell-based, human
settings: maximum CD4+ T-cell response (TNFα and IFNγ), donor independent; peptide pool 10 μg/mL, healthy donors
Protocol: Immunogenicity responses were measured by estimating TNFα IFNγ double positive cells in the CD4+ and/or CD8+ T-cell populations. […] Overlapping 15-mer peptides were designed to span each indicated neoantigen. Their ability to activate T cells was assessed using known methods, such as the assay defnied as exogenous autologous normal donor restimulation assay. The peptides were used as pools using TNFα and IFNγ production by CD8^+ and CD4^+ T cells as a readout. […]
measured_metric: Fold change (CD4+) vs. DMSO
Reply with just the number.

// known answers, use as guide
In [3]: df
Out[3]:
                        biopolymer_sequence              measured_metric  value_reported
0  QILQQALKIAFLKVVVPLKLHPYSFCH [AS132, alternative splicing, USP25]  Fold change (CD4+) vs. DMSO          181.82
1  GNVLVRYVSLYVYYILLN [AS97, alternative splicing, ANKRD28]  Fold change (CD4+) vs. DMSO           96.12
2  LARQISFKSLI [FUS14, gene fusion UBE2J1-> GABRR2]  Fold change (CD4+) vs. DMSO          256.93
3  LDPPHDEKALACPQWTLLWIFWTAKAL [AS95, alternative splicing, WDR64]  Fold change (CD4+) vs. DMSO           19.58
4  RPGVFTDIL [FUS53, gene fusion PTPRG-> C3orf14]  Fold change (CD4+) vs. DMSO            6.29

Field Fold change (CD4+) vs. DMSO (entry LRYLIHLRKWKIK [FUS55, gene fusion FAM214A-> ARPP19] ) reads 74.67

Field Fold change (CD4+) vs. DMSO (entry QIRVPSYSDEG [AS114, alternative splicing, CNTN5] ) reads 2.05

Field Fold change (CD4+) vs. DMSO (entry ISKRLKSRRRSGWQLNRAGNRGLSPGLGLFPRGCCRWGGAYTRLPSANQT [FUS20, gene fusion PTGES2-> SLC25A25-AS1] ) reads 11.664

Field Fold change (CD4+) vs. DMSO (entry PPGGHSPQDLSIREIFCLGHKEVC [AS136, alternative splicing, ZNF592] ) reads 10.86

Field Fold change (CD4+) vs. DMSO (entry FGTSHMMVRHF [AS33, alternative splicing, CFAP54] ) reads 2.78

Field Fold change (CD4+) vs. DMSO (entry SGLLMNTLTVLILYFLY [FUS9, gene fusion EAF2-> SLC15A2] ) reads 3.08

Field Fold change (CD4+) vs. DMSO (entry GTTRLLSGEDFS [AS111, alternative splicing, CD55] ) reads 16.71

Field Fold change (CD4+) vs. DMSO (entry QIIYDENRTMQIFVKT [FUS28, gene fusion NCOR2-> UBC] ) reads 1.13

Field Fold change (CD4+) vs. DMSO (entry AGDVLFIPGISLKVHKVQHSKVINICN [AS55, alternative splicing, TYW5] ) reads 27.71

Field Fold change (CD4+) vs. DMSO (entry FLQKHGNENTVLMLETLSEIRYGYVSCVCCPLLSPYGRCLN [AS26, alternative splicing, AGFG1] ) reads 5.7

Field Fold change (CD4+) vs. DMSO (entry SATTRSITGQDILSLEKERR [AS17, alternative splicing, DCC] ) reads 7.078

Field Fold change (CD4+) vs. DMSO (entry MKQFLDFGECGPGPWAFLRGPGRGAAAAAPGRVGAGQLSPEAHPSSSAFPPPAP [AS10, alternative splicing, PDK1] ) reads 76.818

Field Fold change (CD4+) vs. DMSO (entry KLLYEVSQKMVL [AS50, alternative splicing, PDZRN4] ) reads 8.29

Field Fold change (CD4+) vs. DMSO (entry PKVFPKNQVISLIPKAQEDPEHT [AS127, alternative splicing, ST3GAL6] ) reads 7.179
